Numbers sourced from patent US8076324B2.

Decision: melting point beneath 200 °C gives met; melting point meeting or exceeding 200 °C gives not met.

>  <smiles-record>
O=C(O)[C@]1(c2ccc(F)cc2)CC[C@](Oc2ncccn2)(c2ccc(F)cn2)CC1

>  <class-label>
met

$$$$
>  <smiles-record>
O=C(O)[C@]1(c2ccc(F)cc2)CC[C@](OCC2CC2)(c2ccc(F)cn2)CC1

>  <class-label>
not met

$$$$
>  <smiles-record>
CS(=O)(=O)c1cccc2c1nc([C@]1(OCC3CC3)CC[C@](C(=O)O)(c3ccccc3)CC1)n2CC1CC1

>  <class-label>
not met

$$$$
>  <smiles-record>
Cc1c(Br)nc([C@]2(Oc3ccccc3)CC[C@](C(=O)O)(c3ccc(F)cc3)CC2)n1CC1CC1

>  <class-label>
met

$$$$
>  <smiles-record>
Cc1cnc([C@]2(OCC3CC3)CC[C@](C(=O)O)(c3ccc(F)cc3)CC2)n1CC1CC1

>  <class-label>
met

$$$$
>  <smiles-record>
Cc1nc([C@]2(OCC3CC3)CC[C@](C(=O)O)(c3ccc(F)cc3)CC2)n(CC2CC2)c1Br

>  <class-label>
met

$$$$
>  <smiles-record>
Cc1nc([C@]2(Oc3ccccc3)CC[C@](C(=O)O)(c3ccccc3)CC2)n(CC2CC2)c1Cl

>  <class-label>
met

$$$$
>  <smiles-record>
Cc1c(S(C)(=O)=O)nc([C@]2(OCC3CC3)CC[C@](C(=O)O)(c3ccccc3)CC2)n1CC1CC1

>  <class-label>
not met

$$$$

* * *

Target: myocardial ATP-sensitive potassium channel (SUR2A/Kir6.2) (UniProt Q61743+Q63563)
Sequence (Q63563 whole entry): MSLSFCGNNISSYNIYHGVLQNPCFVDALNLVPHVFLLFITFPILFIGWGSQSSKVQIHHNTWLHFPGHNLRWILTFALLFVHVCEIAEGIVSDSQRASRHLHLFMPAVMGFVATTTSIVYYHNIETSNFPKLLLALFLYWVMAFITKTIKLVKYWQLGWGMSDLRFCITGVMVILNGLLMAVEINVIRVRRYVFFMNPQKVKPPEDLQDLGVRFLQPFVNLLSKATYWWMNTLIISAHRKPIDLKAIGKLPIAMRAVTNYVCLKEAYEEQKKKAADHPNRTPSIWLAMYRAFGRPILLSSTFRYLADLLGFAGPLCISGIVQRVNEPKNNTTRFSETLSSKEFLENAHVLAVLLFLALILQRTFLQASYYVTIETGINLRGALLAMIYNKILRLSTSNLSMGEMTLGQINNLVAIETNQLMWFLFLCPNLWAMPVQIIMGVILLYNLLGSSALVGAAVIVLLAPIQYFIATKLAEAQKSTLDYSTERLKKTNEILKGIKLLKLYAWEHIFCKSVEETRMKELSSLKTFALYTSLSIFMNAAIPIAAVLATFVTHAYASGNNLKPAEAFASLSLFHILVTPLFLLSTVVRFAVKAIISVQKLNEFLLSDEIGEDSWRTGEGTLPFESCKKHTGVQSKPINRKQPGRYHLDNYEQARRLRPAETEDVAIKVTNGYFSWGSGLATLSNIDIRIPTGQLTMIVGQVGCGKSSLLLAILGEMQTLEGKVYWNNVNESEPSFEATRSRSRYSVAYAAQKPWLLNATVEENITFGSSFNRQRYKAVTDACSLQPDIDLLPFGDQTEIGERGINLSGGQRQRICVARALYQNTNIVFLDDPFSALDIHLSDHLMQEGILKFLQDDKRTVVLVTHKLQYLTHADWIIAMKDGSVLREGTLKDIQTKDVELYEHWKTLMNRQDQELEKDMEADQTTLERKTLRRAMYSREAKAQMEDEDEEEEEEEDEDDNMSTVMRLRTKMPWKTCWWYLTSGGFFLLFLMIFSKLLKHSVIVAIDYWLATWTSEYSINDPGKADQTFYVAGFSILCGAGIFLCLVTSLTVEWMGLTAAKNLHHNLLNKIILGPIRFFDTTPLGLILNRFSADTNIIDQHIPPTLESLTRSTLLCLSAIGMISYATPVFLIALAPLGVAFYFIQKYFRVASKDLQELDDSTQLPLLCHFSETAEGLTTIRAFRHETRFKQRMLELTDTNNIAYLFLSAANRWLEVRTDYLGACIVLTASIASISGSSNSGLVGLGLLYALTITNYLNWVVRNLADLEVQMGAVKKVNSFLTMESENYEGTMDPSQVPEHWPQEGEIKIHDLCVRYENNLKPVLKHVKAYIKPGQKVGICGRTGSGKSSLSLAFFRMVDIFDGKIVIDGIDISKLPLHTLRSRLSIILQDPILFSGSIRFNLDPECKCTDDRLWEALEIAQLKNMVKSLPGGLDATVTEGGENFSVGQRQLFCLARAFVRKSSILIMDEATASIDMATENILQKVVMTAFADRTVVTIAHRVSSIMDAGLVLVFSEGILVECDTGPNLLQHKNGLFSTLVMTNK
Sequence (Q61743 whole entry): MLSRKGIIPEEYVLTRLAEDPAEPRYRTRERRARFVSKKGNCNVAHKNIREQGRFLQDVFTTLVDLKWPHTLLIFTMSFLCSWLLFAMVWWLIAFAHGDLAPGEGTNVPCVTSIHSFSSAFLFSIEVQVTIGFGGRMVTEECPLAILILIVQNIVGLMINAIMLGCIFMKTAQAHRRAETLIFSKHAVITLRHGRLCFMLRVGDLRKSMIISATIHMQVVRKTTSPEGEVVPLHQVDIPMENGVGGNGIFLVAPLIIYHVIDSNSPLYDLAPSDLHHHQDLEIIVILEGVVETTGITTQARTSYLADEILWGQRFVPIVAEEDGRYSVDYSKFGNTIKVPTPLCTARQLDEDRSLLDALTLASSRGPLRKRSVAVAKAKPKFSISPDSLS
Assay: Rubidium efflux test on HEK293 cells transfected with SUR2A and Kir6.2 (myocardial action)
Settings: HEK293 cells transfected with SUR2A/Kir6.2; KATP channels opened by rilmakalim; 25 min incubation; read-out: IC50 values for the inhibition of the rubidium efflux
pIC50: −log10 of the molar value.
Reported pIC50 is given for each of the following compounds.

>  <compound>
Cc1c(F)cc([C@]2(OCC3CC3)CC[C@](C(=O)O)(c3ccccc3)CC2)cc1S(C)(=O)=O

>  <pIC50>
> 6.00

$$$$
>  <compound>
Cc1c(Br)nc([C@]2(OCC3CC3)CC[C@](C(=O)O)(c3ccccc3)CC2)n1CC1CC1

>  <pIC50>
> 6.00

$$$$
>  <compound>
CCCOC1(c2ccccc2S(C)(=O)=O)CCC(C(=O)O)(c2ccccc2)CC1 (stereo not drawn)

>  <pIC50>
> 6.00

$$$$
